# targetSystem: TNKS2 ARC5 (Homo sapiens, UniProt Q9H2K2)
# Construct: ankyrin repeat cluster 5 domain, 6xHis-mCerulean (CFP) fusion, E. coli
# Sequence (Q9H2K2 646-800 limits assumed): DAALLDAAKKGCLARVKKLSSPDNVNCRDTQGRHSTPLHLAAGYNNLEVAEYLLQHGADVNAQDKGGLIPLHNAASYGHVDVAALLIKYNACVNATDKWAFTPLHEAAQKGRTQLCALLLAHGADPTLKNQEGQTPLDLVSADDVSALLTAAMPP
# measurementNotes: FRET displacement of YFP-REAGDGEE peptide from CFP-ARC
pIC50: −log10 of the molar value.
reportedMetric: pIC50

Consider the worked cases shown below.
[
  {
    "compound": "CCN(CC)CCCN1C(=O)C(O)=C(C(=O)c2ccc3c(c2)OCCO3)C1c1ccc(O)cc1 (stereo not drawn)",
    "experimentalValue": "< 3.00"
  },
  {
    "compound": "Cc1ccc(C2C(C(=O)c3ccc4c(c3)OCCO4)=C(O)C(=O)N2CCCN2CCOCC2)cc1 (stereo not drawn)",
    "experimentalValue": "< 3.00"
  }
]

Next compound, please.
(Q) Given COc1ccc(C2C(C(=O)c3ccc4c(c3)OCCO4)=C(O)C(=O)N2CCCN2CCOCC2)cc1 (stereo not drawn) , respond with its pIC50.
(A) < 3.00

* * *

# targetSystem: TNKS2 ARC4 (Homo sapiens, UniProt Q9H2K2)
# Construct: ankyrin repeat cluster 4 domain; FRET: 6xHis-mCerulean (CFP) fusion; DSF, NMR, crystal: MBP and His tag cleaved by TEV, residues 487-649 printed for crystal; E. coli BL21(DE3)
# Sequence (Q9H2K2 487-649): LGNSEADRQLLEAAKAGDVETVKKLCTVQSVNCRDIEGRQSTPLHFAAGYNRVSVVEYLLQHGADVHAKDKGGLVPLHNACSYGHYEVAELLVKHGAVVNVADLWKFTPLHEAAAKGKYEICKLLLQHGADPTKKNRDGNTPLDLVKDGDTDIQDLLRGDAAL
# Parameters: DSF thermal shift of TNKS2 ARC4, stabilization over DMSO control
# conditionSummary: binder
Overview of recorded ΔTm ± SD (°C) for various compounds
Reply with just the number (in °C).

(Q) Provide ΔTm ± SD (°C), tested on TNKS2 ARC4 (Homo sapiens, UniProt Q9H2K2), for O=C(C1=C(O)C(=O)N(CCCN2CCOCC2)C1c1cccc(O)c1)c1ccc2c(c1)OCCO2 (stereo not shown) .
(A) 2.25

(Q) Send back TNKS2 ARC4 (Homo sapiens, UniProt Q9H2K2) ΔTm ± SD (°C) of CCCCOc1ccc(C2C(C(=O)c3ccc4c(c3)OCCO4)=C(O)C(=O)N2CCCN(C)C)cc1 (stereo not shown) only.
(A) 1.65

* * *

# targetSystem: TNKS2 ARC4 (Homo sapiens, UniProt Q9H2K2)
# Construct: ankyrin repeat cluster 4 domain; FRET: 6xHis-mCerulean (CFP) fusion; DSF, NMR, crystal: MBP and His tag cleaved by TEV, residues 487-649 printed for crystal; E. coli BL21(DE3)
# Parameters: DSF thermal shift of TNKS2 ARC4, stabilization over DMSO control
# conditionSummary: binder
Lab note: cut-off is 0.04 °C. Strictly less in ΔTm ± SD (°C) is met. Exactly 0.04 °C or more is not met.

[
  {
    "molecule": "CCN(CC)CCCN1C(=O)C(O)=C(C(=O)c2ccc(OC)cc2)C1c1ccccc1 (centres unmarked)",
    "categoryLabel": "not met"
  }
]

(Q) Input CCN(CC)CCCN1C(=O)C(O)=C(C(=O)c2ccc(OC)c(OC)c2)C1c1ccccc1 (centres unmarked) ; condition: ΔTm ± SD (°C) strictly below 0.04 °C. Does it hold?
(A) met

(Q) ΔTm ± SD (°C) under 0.04 °C? Item: Cc1ccc(C2C(C(=O)c3ccc4c(c3)OCCO4)=C(O)C(=O)N2CCN(C)C)cc1 (centres unmarked)
(A) not met

(Q) Please check: ΔTm ± SD (°C) for O=C(C1=C(O)C(=O)N(CCN2CCOCC2)C1c1ccccc1)c1ccc2c(c1)OCCO2 (centres unmarked) , strictly under 0.04 °C or not?
(A) not met
